- Assay Overview: physchem
- Type: physicochemical
- Condition Summary: HPLC, reversed-phase C18, acidic range pH 3.4 (formic acid), 55° C.; read-out: log P
Property Name: chromatographic logP

INSERT INTO assay_data (compound, property_name, reported) VALUES
  ('O=C(Nc1ccn(-c2c(F)cccc2F)n1)c1ccccc1C(F)(F)F [Compound I-1-75]', 'chromatographic logP', 2.68);
